The origin of these recorded values is paper PMC9860126.

Target: HpNikR I127A (Helicobacter pylori G27, UniProt A1YSQ9 1-148, I127A)
Assay: fluorescence anisotropy; Ni(II)-bound; FA: 5 nM DNA, 20 mM Tris pH 7.6, 100 mM NaCl, 3 mM MgSO4, temperature not stated (Ni loading 1.2 eq NiSO4 per monomer at RT). EMSA: 20 mM Tris pH 7.5, 100 mM KCl, 3 mM MgCl2, 0.1% IGEPAL, 5% glycerol, 0.1 mg/ml herring sperm DNA, RT; gel with 800 uM NiSO4 at 4 C
Settings: protein: recombinant; tags: none stated; chain copies: 4; label: fluorescein on internal thymine (T14 of strand 1); blunt
readout.name: pKd
In simple prose, pKd is minus the logarithm base ten of a concentration in moles per litre.

Q) What measured pKd goes with ureA promoter 32 bp (FA) (dsDNA) DNA 1: ATATAACACTAATTCATTTTAAATAATAATTA DNA 2: TAATTATTATTTAAAATGAATTAGTGTTATAT ?
A) 8.06
